Molecular target: T1, native PRLR expressing T47D cells (Homo sapiens, UniProt P16471)
T1 construct: a native PRLR expressing cell line (T47D); endogenous in cells; host or cells: T47D
T1 sequence (P16471 25-622): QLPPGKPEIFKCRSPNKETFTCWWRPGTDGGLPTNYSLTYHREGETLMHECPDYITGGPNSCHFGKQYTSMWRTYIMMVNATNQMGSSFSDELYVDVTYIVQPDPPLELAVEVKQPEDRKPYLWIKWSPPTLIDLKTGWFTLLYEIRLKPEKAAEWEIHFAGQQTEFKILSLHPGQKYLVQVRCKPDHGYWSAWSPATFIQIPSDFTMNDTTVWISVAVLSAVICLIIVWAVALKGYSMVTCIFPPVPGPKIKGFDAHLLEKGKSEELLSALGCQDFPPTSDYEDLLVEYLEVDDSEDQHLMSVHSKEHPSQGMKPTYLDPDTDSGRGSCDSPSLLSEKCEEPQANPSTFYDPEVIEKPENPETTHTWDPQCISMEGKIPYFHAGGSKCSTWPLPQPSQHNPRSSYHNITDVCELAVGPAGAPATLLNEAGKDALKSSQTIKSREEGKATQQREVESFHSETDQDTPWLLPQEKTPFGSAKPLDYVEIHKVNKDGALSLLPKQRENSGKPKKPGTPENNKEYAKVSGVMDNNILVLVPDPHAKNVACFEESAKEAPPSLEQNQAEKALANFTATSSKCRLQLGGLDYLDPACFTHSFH
Assay: FACS cell surface binding
I'd appreciate it if you could supply FACS Cell Binding values for the items below.
Only the number, expressed in Fold Above Background, is required.

Specify reported FACS Cell Binding for the molecule shown: H1H6797P: fully human anti-PRLR antibody, human IgG1 Fc; HCVR/LCVR SEQ ID NOs 178/186 (antibody, V domains shown) VH: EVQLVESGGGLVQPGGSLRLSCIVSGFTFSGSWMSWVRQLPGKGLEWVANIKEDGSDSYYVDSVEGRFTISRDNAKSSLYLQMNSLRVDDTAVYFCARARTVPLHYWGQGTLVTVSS VL: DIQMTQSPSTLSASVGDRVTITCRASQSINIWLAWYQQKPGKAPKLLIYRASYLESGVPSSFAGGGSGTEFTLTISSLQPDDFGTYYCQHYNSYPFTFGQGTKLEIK 38

Specify reported FACS Cell Binding for the molecule shown: H1H6976N: anti-PRLR antibody, human IgG1 Fc form of H2M6976N of Table 1; HCVR/LCVR SEQ ID NOs 386/394 (antibody, V domains shown, human IgG1 Fc) VH: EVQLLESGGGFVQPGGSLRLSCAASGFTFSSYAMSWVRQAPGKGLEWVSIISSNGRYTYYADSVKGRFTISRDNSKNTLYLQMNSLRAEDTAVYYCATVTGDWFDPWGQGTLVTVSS VL: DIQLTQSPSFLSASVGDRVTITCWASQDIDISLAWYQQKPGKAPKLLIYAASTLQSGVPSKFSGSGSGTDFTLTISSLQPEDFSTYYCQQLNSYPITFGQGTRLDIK 37
